Data origin, for the record: PubChem BioAssay AID602399

Can you tell me inhibition for the items I'm about to list?
- Test system: Nicotinate-nucleotide adenylyltransferase NadD (Staphylococcus aureus N315)
- Method Notes: inhibitors of S. aureus NadD, primary screen, biochemical, colorimetric, uHTS (AID 602399)
- Setup Conditions: purified NadD enzyme, colorimetric absorbance read-out; at 20 µM; active compounds read high
Hit rate of the full screen: of about 360,000 compounds, about 2,800 (0.78%) were called active. The list comes from a sample in which actives are over-represented; it also holds close analogues and randomly drawn compounds.
Write down the numeric answer in % and omit the unit.

Looking up "C=CCCC(=O)Nc1nc(C)c(-c2csc(Nc3ccc(Cl)cc3)n2)s1" , I found its inhibition recorded as 12.2

Looking up "Cc1ccc(Nc2nc(-c3sc(NC(=O)c4ccccc4)nc3C)cs2)cc1" , I found its inhibition recorded as 36.9

Looking up "c1ccc2c(c1)OC1OC2Oc2ccccc21" , I found its inhibition recorded as -4.86

Looking up "COc1ccc2c(c1OC)C(=O)N(c1ncn[nH]1)C2" , I found its inhibition recorded as 0.954

Looking up C=CCN1C(=O)C(Cc2ccc(OCC)cc2)SC1=Nc1ccc(C(=O)O)cc1 (stereo unspecified) , I found its inhibition recorded as -1.51

Looking up CCOC(=O)C(Sc1ncc(C#N)c(N)n1)C(C)C (stereo unspecified) , I found its inhibition recorded as 2.12

----------
- Tested on: Nicotinate-nucleotide adenylyltransferase NadD (Staphylococcus aureus N315)
- Method Notes: inhibitors of S. aureus NadD, primary screen, biochemical, colorimetric, uHTS (AID 602399)
- Setup Conditions: purified NadD enzyme, colorimetric absorbance read-out; at 20 µM
Hit rate of the full screen: of about 360,000 compounds, about 2,800 (0.78%) were called active. No stated cut-off is given here; in the data, active means inhibition above about 26%; inactive means the rest. The sample as a whole holds a higher share of actives than the screen did.
Permitted responses: 1.0 for active, 0.0 for inactive

Task: Just curious, what result did "Cc1cc2nc(-c3ccc(F)cc3)c(Cc3ccsc3)n2c(C)c1Br" get here?
Result: 0.0

Task: Just curious, what result did "Cc1cc2nc(-c3ccc(Cl)cc3)c(Cc3cccc(F)c3)n2c(C)c1Br" get here?
Result: 0.0

Task: Just curious, what result did "CCCCCCN1C[C@@H](O)[C@H](n2cc(COC(=O)c3ccccc3)nn2)C[C@@H]1c1ccc(Cl)cc1" get here?
Result: 0.0

Task: Just curious, what result did COc1cccc2c1C(=O)c1c(O)c3c(c(O)c1C2=O)CC(O)(C(C)=NNC(=O)c1ccc(Cl)c(Cl)c1)CC3OC1CC(N)C(O)C(C)O1 (stereo not given) get here?
Result: 1.0

Task: Just curious, what result did "CC(=O)c1c(C)n([O-])c2ccccc2[n+]1=O" get here?
Result: 0.0

----------
Can you tell me inhibition for the items I'm about to list?
- Test system: Nicotinate-nucleotide adenylyltransferase NadD (Staphylococcus aureus N315)
- Method Notes: inhibitors of S. aureus NadD, primary screen, biochemical, colorimetric, uHTS (AID 602399)
- Setup Conditions: purified NadD enzyme, colorimetric absorbance read-out; at 20 µM; active compounds read high
Out of some 360,000 compounds screened, about 2,800 (0.78%) were called active. This excerpt belongs to a sample that is enriched for actives.
Write down the numeric answer in % and omit the unit.

Looking up O=C(CC1C(=O)NCCN1CC(c1ccccc1)c1ccccc1)NCCc1cn[nH]c1 (stereo unspecified) , I found its inhibition recorded as 7.62

Looking up "CCCSc1nc2[nH]ncc2c(=O)[nH]1" , I found its inhibition recorded as 0.611

Looking up "COCCNC(=O)Cn1cc2c(n1)CCCCC2" , I found its inhibition recorded as 4.24

Looking up "COc1ccc2oc(=O)cc(CN3CCOCC3)c2c1" , I found its inhibition recorded as 0.645

Looking up "Cc1ccc(Cn2c(=N)c(S(=O)(=O)c3ccc(C)cc3)cc3c(=O)n4ccccc4nc32)cc1" , I found its inhibition recorded as 35.5

Looking up "COc1ccc(N=Nc2ccc(O)c(P(=O)(c3ccccc3)c3ccccc3)c2)cc1" , I found its inhibition recorded as 30.9

Looking up "CCCCn1c(N)c(N(CCOC)C(=O)c2oc3ccc(OC)cc3c2C)c(=O)[nH]c1=O" , I found its inhibition recorded as -3.15

Looking up CCC(C)N(C(=O)COC(=O)C1C(C(=O)OC)=C(C)NC(C)=C1C(=O)OC)C1CCS(=O)(=O)C1 (stereo unspecified) , I found its inhibition recorded as 1.18

Looking up "COc1ccc(NS(=O)(=O)c2ccc(NC(=O)C(C)(C(F)(F)F)C(F)(F)F)cc2)nn1" , I found its inhibition recorded as 8.48

Looking up "COc1ccc(C(=O)Nc2cccc(/C=C(/CCC(=O)O)c3nc4ccccc4s3)c2)cc1" , I found its inhibition recorded as 35.2

Looking up COc1ccc([N+](=O)[O-])cc1C1NN=C(c2cccc3ccccc23)S1 (stereo unspecified) , I found its inhibition recorded as 17.6

Looking up "CCn1c(=N)c(S(=O)(=O)c2ccc(F)cc2)cc2c(=O)n3ccccc3nc21" , I found its inhibition recorded as 7.46

Looking up "CN(CC(=O)N1CCN(c2ccccc2)CC1)S(=O)(=O)c1cccs1" , I found its inhibition recorded as -2.17

Looking up "CCn1cc(C(=O)NC2CCCCCC2)c(=O)c2cc(S(=O)(=O)N3CCCCC3)ccc21" , I found its inhibition recorded as -1.8

Looking up "Cn1c(CCN2CCCCCC2)nc2cc(NC(=O)Nc3ccccc3)ccc21" , I found its inhibition recorded as 31.5

Looking up "COc1cc(NS(=O)(=O)c2ccc(NC(=S)NC(=O)c3ccc(Br)cc3)cc2)ncn1" , I found its inhibition recorded as 16.5

Looking up "Cc1ccc(/C=C/C(=O)O)cc1S(=O)(=O)N1CCC(Cc2ccccc2)CC1" , I found its inhibition recorded as -2.42

Looking up "CC12CN(Cc3ccccc3)CC(C)(CN(Cc3ccccc3)C1)C2=NO" , I found its inhibition recorded as -2.69

Looking up "Cc1cccc(CCNS(=O)(=O)c2ccc3c(c2)NC(=O)CO3)c1" , I found its inhibition recorded as -0.563

Looking up "Cc1nn(-c2ccc(F)cc2)c(Cl)c1/C=C(/CCC(=O)O)c1nc2ccccc2s1" , I found its inhibition recorded as 6.39

Looking up CCOc1ccc(/C(O)=C2\C(=O)C(=O)N(c3ccc(OC)cc3)C2c2ccccc2[N+](=O)[O-])cc1 (stereo unspecified) , I found its inhibition recorded as -0.376

Looking up "Cc1ccc(S(=O)(=O)c2cc3c(=O)n4cccc(C)c4nc3n(CCc3ccccc3)c2=N)cc1C" , I found its inhibition recorded as -1.62

Looking up O=C(NCCCCc1ccccc1)C1CC(c2ccc([N+](=O)[O-])cc2)=NO1 (stereo unspecified) , I found its inhibition recorded as -8.64

Looking up "O=C(NCc1ccncc1)c1ccc(NS(=O)(=O)c2cccc([N+](=O)[O-])c2)cc1" , I found its inhibition recorded as -1.63

Looking up "COc1ccc(NS(=O)(=O)c2ccc(NC(=S)NC(=O)/C=C/c3ccc(C)cc3)cc2)nn1" , I found its inhibition recorded as 52.5

Looking up COc1ccc(NC(=O)C2CCC(CNc3c(N4CCCCC4)c(=O)c3=O)CC2)c(OC)c1 (stereo unspecified) , I found its inhibition recorded as 1.77

Looking up "O=C(CSc1nnc(-c2cccnc2)n1Cc1ccco1)c1ccc(Cl)c(Cl)c1" , I found its inhibition recorded as 30.6

Looking up "COc1ccc(OC)c(C(=O)c2coc3ccc(O)c(CN4CCOCC4)c23)c1" , I found its inhibition recorded as 36.3

Looking up "Clc1ccc(C2=CSC3=Nc4cccc5cccc(c45)N23)cc1" , I found its inhibition recorded as 46.9

Looking up "CN(C)CCN1CCN(c2cc(-c3cccc(Cl)c3)nc3ccnn23)CC1" , I found its inhibition recorded as -0.61

Looking up "COc1ccc(OC)c(C(=O)c2coc3ccc(OC)cc23)c1" , I found its inhibition recorded as -4.74

Looking up "NC(=O)NC(=O)CSc1nc2cc([N+](=O)[O-])ccc2n1-c1cccc(C(F)(F)F)c1" , I found its inhibition recorded as 17.8

Looking up "Cc1noc(/C=C/c2ccco2)c1S(=O)(=O)N1CCC(C(=O)Nc2ccc(Cl)cn2)CC1" , I found its inhibition recorded as 16.8

Looking up "C(=C\c1ccccc1)/CSc1nnc(-c2cccnc2)n1Cc1ccco1" , I found its inhibition recorded as 14.6

Looking up "O=C(c1ccc(CS(=O)(=O)c2ccccc2)o1)N1CCN(c2ccccc2)CC1" , I found its inhibition recorded as 1.5

Looking up "CC(=O)c1c(C)[nH]c(C(=O)COC(=O)c2cccc(S(=O)(=O)N(C)c3ccccc3)c2)c1C" , I found its inhibition recorded as -2.3

Looking up "CCOC(=O)c1c(NC(=O)NC(C)(C)C)sc2c1CCN(C)C2" , I found its inhibition recorded as 0.728

Looking up "O=c1c(-c2ccccc2)cnc2n1CCS2" , I found its inhibition recorded as -3.39

Looking up CCn1cc(C(=O)NCC2CCCO2)c(=O)c2cc(S(=O)(=O)N3CCCCC3)ccc21 (stereo unspecified) , I found its inhibition recorded as 8.79

Looking up CC(CCN1CCN=C1N(C)C)c1ccccc1 (stereo unspecified) , I found its inhibition recorded as -0.906

Looking up "O=C(c1ccccc1)N1CCN(C(=O)c2cc3nc(-c4ccccc4)cc(C(F)(F)F)n3n2)CC1" , I found its inhibition recorded as 2.29
